Reference source: patent US10016515B2

# protocol: Tissue bio-distribution and tissue pharmacokinetics of DMA
# Format: in vivo, mouse
# particulars: Balb/c, mouse, liver; Oral 100 mg/kg, 24 h; read-out: Tissue DMA concentration, Liver
reported metric: concentration at 24 h (ng/g)
// note: answer is a bare numeric in ng/g

Qu. Consider the molecule "COc1ccc(-c2nc3cc(-c4nc5cc(N6CCN(C)CC6)ccc5[nH]4)ccc3[nH]2)cc1OC" and give its measured concentration at 24 h.
Ans. 192

###

# protocol: Tissue bio-distribution and tissue pharmacokinetics of DMA
# Type: in vivo, mouse
# particulars: Balb/c, mouse, kidney, intravenous; 50 mg/kg i.v.; read-out: Concentration achieved in kidney
reported metric: concentration at 1 h (ng/g)
Please state the figure in ng/g; there is no need to write the unit.

Qu. Returns the measured concentration at 1 h for the input compound. Input: COc1ccc(-c2nc3cc(-c4nc5cc(N6CCN(C)CC6)ccc5[nH]4)ccc3[nH]2)cc1OC [DMA]
Ans. 14900

###

# protocol: Tissue bio-distribution and tissue pharmacokinetics of DMA
# Format: in vivo, mouse
# particulars: Balb/c, mouse, spleen, iv; i.v. 50 mg/kg, 1 h; read-out: Tissue DMA concentration, Spleen
reported metric: concentration at 1 h (ng/g)
Number in ng/g, nothing else.

Qu. Reported concentration at 1 h, molecule "COc1ccc(-c2nc3cc(-c4nc5cc(N6CCN(C)CC6)ccc5[nH]4)ccc3[nH]2)cc1OC" : ____
Ans. 6970

###

# protocol: Tissue bio-distribution and tissue pharmacokinetics of DMA
# Assay type: in vivo, mouse
# particulars: Balb/c, mouse, lung; Oral 100 mg/kg, 6 h; read-out: Tissue DMA concentration, Lung
reported metric: concentration at 6 h (ng/g)
Just the number please, in ng/g, no unit attached.

Qu. Dear colleague, I am looking for the recorded concentration at 6 h of the following compound: COc1ccc(-c2nc3cc(-c4nc5cc(N6CCN(C)CC6)ccc5[nH]4)ccc3[nH]2)cc1OC [DMA]
Ans. 538

###

# protocol: Tissue bio-distribution and tissue pharmacokinetics of DMA
# Assay type: in vivo, mouse
# particulars: Balb/c, mouse, liver, iv; i.v. 50 mg/kg, 2 h; read-out: Tissue DMA concentration, Liver
reported metric: concentration at 2 h (ng/g)
Express it in ng/g; write the number only.

Qu. May I ask what concentration at 2 h has been recorded for "COc1ccc(-c2nc3cc(-c4nc5cc(N6CCN(C)CC6)ccc5[nH]4)ccc3[nH]2)cc1OC" ?
Ans. 2000

###

# protocol: Tissue bio-distribution and tissue pharmacokinetics of DMA
# Type: in vivo, mouse
# particulars: Balb/c, mouse, liver, iv; i.v. 50 mg/kg, 4 h; read-out: Tissue DMA concentration, Liver
reported metric: concentration at 4 h (ng/g)
Give your result in ng/g as a bare value.

Qu. What does the record list as concentration at 4 h for "COc1ccc(-c2nc3cc(-c4nc5cc(N6CCN(C)CC6)ccc5[nH]4)ccc3[nH]2)cc1OC" ?
Ans. 30100

###

# protocol: Tissue bio-distribution and tissue pharmacokinetics of DMA
# Format: in vivo, mouse
# particulars: Balb/c, mouse, spleen, iv; i.v. 50 mg/kg, 6 h; read-out: Tissue DMA concentration, Spleen
reported metric: concentration at 6 h (ng/g)
Numeric answer only, unit ng/g assumed.

Qu. Recorded concentration at 6 h for "COc1ccc(-c2nc3cc(-c4nc5cc(N6CCN(C)CC6)ccc5[nH]4)ccc3[nH]2)cc1OC" , please?
Ans. 12100
